This collection of values is drawn from patent US8759318B2.

assay: Compound cytotoxicity in cytoprotection assay (MTS), MDBK; settings: cow, MDBK cells
measured_quantity: CC50 at 7 days

// returns reported CC50 at 7 days for input COc1nc(N)nc2c1ncn2C1O[C@H](COP(=O)(N[C@@H](C)C(=O)OCC(C)(C)C)Oc2cccc3ccccc23)[C@@H](O)[C@@]1(C)O (stereo partly shown)
> 10 µM

###

tested on: Bovine Viral Diarrhea Virus (BVDV) strain NADL; assay: Cytoprotection assay, BVDV; format: cell-based; conditions: Bovine viral diarrhea virus isolates and strains, MDBK
measured_quantity: EC50 (µM)
The reply should contain only the number, in µM.

Record request: EC50 value, item COc1nc(N)nc2c1ncn2C1O[C@H](COP(=O)(N[C@@H](C)C(=O)OCC(C)(C)C)Oc2cccc3ccccc23)[C@@H](O)[C@@]1(C)O (stereo partly shown)
0.748
